Known EC50 of a selection of compounds
Molecular target: [MCL-1]-[compound of formula (I)]-[CRBN/DDB1] complex (Homo sapiens, UniProt Q07820+Q96SW2)
Sequence (Q07820 whole entry): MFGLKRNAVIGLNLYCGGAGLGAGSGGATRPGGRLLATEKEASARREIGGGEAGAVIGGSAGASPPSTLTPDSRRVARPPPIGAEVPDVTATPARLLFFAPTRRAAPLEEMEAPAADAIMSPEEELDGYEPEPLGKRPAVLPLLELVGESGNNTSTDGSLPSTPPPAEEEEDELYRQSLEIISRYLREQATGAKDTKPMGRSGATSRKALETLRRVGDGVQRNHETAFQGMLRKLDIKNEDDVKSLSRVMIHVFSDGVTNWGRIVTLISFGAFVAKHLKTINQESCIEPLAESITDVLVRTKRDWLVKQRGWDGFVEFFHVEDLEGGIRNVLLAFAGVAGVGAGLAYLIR
Sequence (Q96SW2 whole entry): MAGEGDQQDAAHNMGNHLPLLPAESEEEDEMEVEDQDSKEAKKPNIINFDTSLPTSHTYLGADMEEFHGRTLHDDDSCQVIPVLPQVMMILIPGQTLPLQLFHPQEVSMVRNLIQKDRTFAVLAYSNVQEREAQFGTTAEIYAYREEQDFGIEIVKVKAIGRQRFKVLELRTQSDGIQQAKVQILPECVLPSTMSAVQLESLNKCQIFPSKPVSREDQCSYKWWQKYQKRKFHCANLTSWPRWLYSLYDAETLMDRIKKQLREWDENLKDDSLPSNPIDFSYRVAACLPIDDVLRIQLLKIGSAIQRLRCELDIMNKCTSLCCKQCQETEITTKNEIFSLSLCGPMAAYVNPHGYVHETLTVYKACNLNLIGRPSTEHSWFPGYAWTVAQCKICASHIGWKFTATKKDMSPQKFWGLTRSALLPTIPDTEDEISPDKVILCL
Sequence (Q16531 whole entry partner): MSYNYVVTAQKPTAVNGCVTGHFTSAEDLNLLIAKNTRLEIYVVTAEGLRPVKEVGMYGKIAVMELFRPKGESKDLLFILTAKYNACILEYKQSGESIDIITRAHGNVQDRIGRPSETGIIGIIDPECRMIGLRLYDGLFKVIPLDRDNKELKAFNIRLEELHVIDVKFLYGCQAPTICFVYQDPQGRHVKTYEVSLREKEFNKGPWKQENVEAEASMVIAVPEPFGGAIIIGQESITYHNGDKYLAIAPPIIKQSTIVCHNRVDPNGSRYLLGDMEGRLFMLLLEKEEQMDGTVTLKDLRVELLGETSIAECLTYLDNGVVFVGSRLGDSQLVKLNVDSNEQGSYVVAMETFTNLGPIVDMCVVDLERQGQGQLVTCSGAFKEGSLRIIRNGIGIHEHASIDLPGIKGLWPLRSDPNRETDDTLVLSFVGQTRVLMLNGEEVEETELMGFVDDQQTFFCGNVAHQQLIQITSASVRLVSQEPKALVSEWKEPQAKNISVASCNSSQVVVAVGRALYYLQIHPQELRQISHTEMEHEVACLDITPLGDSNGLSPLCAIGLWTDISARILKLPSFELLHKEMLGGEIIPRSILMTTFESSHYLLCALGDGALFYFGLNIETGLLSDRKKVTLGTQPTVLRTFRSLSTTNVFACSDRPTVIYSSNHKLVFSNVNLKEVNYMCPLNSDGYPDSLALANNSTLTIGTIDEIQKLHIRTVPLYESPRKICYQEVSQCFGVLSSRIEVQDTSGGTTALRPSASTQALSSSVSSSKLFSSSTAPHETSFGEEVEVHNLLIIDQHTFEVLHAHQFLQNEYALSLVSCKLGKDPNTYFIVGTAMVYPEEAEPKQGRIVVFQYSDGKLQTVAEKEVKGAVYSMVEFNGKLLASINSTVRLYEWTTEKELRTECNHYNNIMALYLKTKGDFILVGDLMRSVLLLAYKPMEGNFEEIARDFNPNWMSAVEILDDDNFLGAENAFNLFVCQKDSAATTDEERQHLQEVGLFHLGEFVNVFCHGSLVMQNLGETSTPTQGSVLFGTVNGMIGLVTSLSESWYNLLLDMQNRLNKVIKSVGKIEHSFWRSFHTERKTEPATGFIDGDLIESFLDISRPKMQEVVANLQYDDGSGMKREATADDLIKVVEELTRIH
Experiment: AlphaLISA dose response ternary complex formation assay
Assay type: binding
Settings: read-out: AlphaLISA dose response Average pEC50 by molecule (converted)
Description: The effect of the bifunctional compounds of the invention on the formation of a ternary complex composed of [MCL-1]-[compound of formula (I)]-[CRBN/DDB1] was investigated with two methods: AlphaLISA dose response assay or HTRF ternary complex assay. […] The read-out was performed with PerkinElmer Enspire Multimode Plate Reader (method for AlphaLISA 384-well low volume, Filterset: λexc=680 nm, λem=615 nm). […]

Before answering, review these 2 worked examples.
compound	EC50
Cc1nn(C)c(C)c1-c1c(Cl)ccc2c(CCCOc3cccc4ccccc34)c(C(=O)O)n(CCN3CCN(C(=O)CNc4cccc5c4C(=O)N(C4CCC(=O)NC4=O)C5=O)CC3)c12 (stereo not drawn) [Compound 207]	< 100 nM
Cc1nn(C)c(C)c1-c1c(Cl)ccc2c(CCCOc3cccc4ccccc34)c(C(=O)O)n(CCN3CCN(C(=O)COc4cccc5c4CN(C4CCC(=O)NC4=O)C5=O)CC34CC4)c12 (stereo not drawn) [Compound 292]	< 10 nM

Please find the next compound below.
Report measured EC50; entry is Cc1nn(C)c(C)c1-c1c(Cl)ccc2c(CCCOc3cccc4cc(F)ccc34)c(C(=O)O)n(CCN3CCC(Nc4cccc5c4C(=O)N(C4CCC(=O)NC4=O)C5=O)CC3)c12 (stereo not drawn) [Compound 308]
< 100 nM
